# tgt: SARS-CoV-2 S Trimer (SARS-CoV-2, UniProt P0DTC2 16-1213)
# test-method-notes: Octet BLI, IgG, avid
value-type: Kd (nM)
Your answer should be a plain number; it is taken to be in nM.

Example cases with answers are listed next.
binder	value-type	data-value
A-14 (antibody, V domains shown) VH: EVQLVESGGGVVQPGRSLRLSCAASGFTFSTYGMHWVRQAPGKGLEWVAVIWYDGSNKYYADSVKGRFTISRDNSKNTLYLQMNSLRAEDTAVYYCARSVDGDYLEYFQHWGQGTLVTVSS VL: QPVLTQPRSVSGSPGQSVTISCTGTSSDVGGYNYVSWYQQHPGKAPKLMIYDVSKRPSGVPDRFSGSKSGNTASLTISGLQAEDEADYYCCSYAGGYTNYVFGTGTKLTVL	Kd	2.09
A-9 (antibody, V domains shown) VH: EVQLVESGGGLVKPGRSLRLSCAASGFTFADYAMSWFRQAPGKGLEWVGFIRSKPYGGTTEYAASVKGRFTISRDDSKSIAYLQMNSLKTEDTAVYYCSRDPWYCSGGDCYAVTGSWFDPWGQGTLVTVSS VL: DIVLTQSPSSLSASVGDRVTITCQASQDIKKYLNWYQQKPGKAPKLLIYDVSNLETGVPSRFSGSGSGTDFTFTISSLQPEDVAIYYCQQYDNLPQTFGQGTKVDIK	Kd	1

Req: Value lookup for Kd; key = A-11 (antibody, V domains shown) VH: EVQLVESGAEVKKPGSSVMVSCKASGGTFSRYAISWVRQAPGQGLEWMGGIIPVFGIVHYAQKFQGRVTITADKSTSTAYMELSSLRSEDTAAYYCARDRQQQPSPYYYHGMDVWGQGTTVTVSS VL: DIRLTQSPSSLSASVGDRVTITCQASQDISNYLNWYQQKPGKAPKLLIYDASNLETGVPTRFSGSGSGTDFTFTISSLQPEDIATYYCQQYDNLPLFGGGTKVEIK
Resp: 1.29
